Tested on: 292921-168-R-J2-PDC complex spheroid growth;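 also: spheroids exposed to compounds for seven days after three days of growth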
Assay: Anticancer human tumor 292921-168-R-J2-PDC patient-derived pancreatic carcinoma cell line growth inhibition [AhR]
Settings: curve of first compound; second compound 10 µM
pIC50: −log10 of the molar value.
Test Readout: pIC50

O=C(C=Cn1cnc(-c2cc(C(F)(F)F)cc(C(F)(F)F)c2)n1)NNc1cnccn1 + Cc1cncc(-c2nc(NCCc3c[nH]c4ccccc34)c3ncn(C(C)C)c3n2)c1 : 6.97
CC1COCCN1c1cc(C2(S(C)(=N)=O)CC2)nc(-c2ccnc3[nH]ccc23)n1 (stereo not given) + Cc1ccccc1N=Nc1ccc(NC(=O)c2ccnn2C)c(C)c1 : 5.83
NS(=O)(=O)OCC1CC(n2ccc3c(NC4CCc5ccccc54)ncnc32)CC1O (stereo not given) + CC(CO)NC(=O)c1cc(-c2ccc(Cl)cc2)nn(-c2cnn(C)c2)c1=O : 6.77

(a) NS(=O)(=O)OCC1CC(n2ccc3c(NC4CCc5ccccc54)ncnc32)CC1O (stereo not given) + Cc1ccccc1N=Nc1ccc(NC(=O)c2ccnn2C)c(C)c1
(b) CC[C@@]1(O)C(=O)OCc2c1cc1n(c2=O)Cc2cc3c(CN(C)C)c(O)ccc3nc2-1 + CC(CO)NC(=O)c1cc(-c2ccc(Cl)cc2)nn(-c2cnn(C)c2)c1=O
Which of these two has the smaller recorded pIC50: a or b ? Label of pick, please.
a
(a: 6.94, b: 7.74)
